target-entity: Can2 (Cryptococcus neoformans)
Construct: recombinant, obtained in-house
Sequence (Q3I4V7 1-239): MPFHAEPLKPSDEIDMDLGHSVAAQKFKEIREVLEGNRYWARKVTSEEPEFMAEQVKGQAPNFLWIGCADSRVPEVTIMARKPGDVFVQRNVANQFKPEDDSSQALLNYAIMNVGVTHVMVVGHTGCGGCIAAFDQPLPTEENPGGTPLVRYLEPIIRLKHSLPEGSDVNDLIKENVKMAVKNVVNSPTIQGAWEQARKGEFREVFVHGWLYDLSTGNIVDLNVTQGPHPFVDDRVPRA
Format: biochemical
study-conditions: read-out: KI (μM)^a / Can2
Measured Ki by item
Output spec: scalar in µM, unitless text.

Query string: Please report the recorded Ki for C#CCOP(N)(=O)c1ccccc1 (stereo not shown) [compound 10, propargyl phosphonamidate 10] .
Result string: 5.3

Query string: Would you kindly repeat that for COP(N)(=O)c1ccccc1 (stereo not shown) [compound 3, methyl phosphonamidate 3] ?
Result string: 0.02

Query string: And what about the compound CCCCOP(N)(=O)c1ccccc1 (stereo not shown) [compound 7, alkyl phosphonamidate 7] ?
Result string: 2.2

Query string: Try the compound CCCOP(N)(=O)c1ccccc1 (stereo not shown)
Result string: 0.9
